Cited source for all entries: the supplement of paper PMC8975748

- Test system: Saccharomyces cerevisiae BY4741 SeMeCo community
- protocolDetails: z-score of subpopulation abundance vs DMSO median, subpopulation auxotrophic for HLU; higher = larger share of this subpopulation than in DMSO controls
- testSettings: 10 µM; 24 h; SM minimal medium; subpopulation (auxotrophy): HLU
Where a name gives a salt, the structure may show the parent alone.
Kindly return MET if reported z-score of subpopulation abundance is no lower than -0.9; return NOT MET if it is lower.

Sample answers from the record:
INPUT: Hi, just wondering whether CC(=O)OCC(COC(C)=O)OC(C)=O shows z-score of subpopulation abundance of -0.9 or higher.
OUTPUT: NOT MET

INPUT: Hi, just wondering whether OC(c1ccccc1)(c1ccccc1)C12CC[N+](CCOCc3ccccc3)(CC1)CC2 [Umeclidinium bromide] shows z-score of subpopulation abundance of -0.9 or higher.
OUTPUT: MET

INPUT: Hi, just wondering whether Oc1ccc(Cl)c2cccnc12 shows z-score of subpopulation abundance of -0.9 or higher.
OUTPUT: MET

INPUT: Hi, just wondering whether NC(=O)N1c2ccccc2C=Cc2ccccc21 [Carbamazepine] shows z-score of subpopulation abundance of -0.9 or higher.
OUTPUT: MET

INPUT: Hi, just wondering whether Cc1onc(-c2ccccc2)c1-c1ccc(S(N)(=O)=O)cc1 shows z-score of subpopulation abundance of -0.9 or higher.
OUTPUT: MET

INPUT: Hi, just wondering whether C[N+]1(C)CCC(=C(c2ccccc2)c2ccccc2)CC1 [Diphemanil Methylsulfate] shows z-score of subpopulation abundance of -0.9 or higher.
OUTPUT: MET

INPUT: Hi, just wondering whether Cc1c(-c2ccc(O)cc2)n(Cc2ccc(OCCN3CCCCCC3)cc2)c2ccc(O)cc12 [Bazedoxifene Acetate] shows z-score of subpopulation abundance of -0.9 or higher.
OUTPUT: MET

INPUT: Hi, just wondering whether NC[C@@H]1O[C@H](O[C@H]2[C@@H](O)[C@H](O[C@@H]3[C@@H](O)[C@H](N)C[C@H](N)[C@H]3O[C@H]3O[C@H](CN)[C@@H](O)[C@H](O)[C@H]3N)O[C@@H]2CO)[C@H](N)[C@@H](O)[C@@H]1O [Neomycin sulfate] shows z-score of subpopulation abundance of -0.9 or higher.
OUTPUT: MET

INPUT: Hi, just wondering whether CCOC(=O)CCC(=O)O[C@H]1[C@H](O[C@@H]2[C@@H](C)[C@H](O[C@H]3C[C@@](C)(OC)[C@@H](O)[C@H](C)O3)[C@@H](C)C(=O)O[C@H](CC)[C@@](C)(O)[C@H](O)[C@@H](C)C(=O)[C@H](C)C[C@@]2(C)O)O[C@H](C)C[C@@H]1N(C)C [Erythromycin Ethylsuccinate] shows z-score of subpopulation abundance of -0.9 or higher.
OUTPUT: MET

INPUT: Hi, just wondering whether O=C(O)c1cn(C2CC2)c2cc(N3CCNCC3)c(F)cc2c1=O [Ciprofloxacin hydrochloride hydrate] shows z-score of subpopulation abundance of -0.9 or higher.
OUTPUT: MET

***
INPUT: Hi, just wondering whether CCOC(=O)C1=C(COCCN)NC(C)=C(C(=O)OC)C1c1ccccc1Cl (stereo not given) [Amlodipine] shows z-score of subpopulation abundance of -0.9 or higher.
OUTPUT: NOT MET

INPUT: Hi, just wondering whether Nc1nc(N)c2nc(-c3ccccc3)c(N)nc2n1 shows z-score of subpopulation abundance of -0.9 or higher.
OUTPUT: NOT MET

INPUT: Hi, just wondering whether O=C(O)c1cc(=O)c2c(OCC(O)COc3cccc4oc(C(=O)O)cc(=O)c34)cccc2o1 [Disodium Cromoglycate] shows z-score of subpopulation abundance of -0.9 or higher.
OUTPUT: MET

INPUT: Hi, just wondering whether CC[C@@]1(O)C(=O)OCc2c1cc1n(c2=O)Cc2cc3cc(O)ccc3nc2-1 [Hydroxy Camptothecine] shows z-score of subpopulation abundance of -0.9 or higher.
OUTPUT: NOT MET

====

- System: Saccharomyces cerevisiae BY4741 SeMeCo community
- protocolDetails: z-score of subpopulation abundance vs DMSO median, subpopulation auxotrophic for HL; higher = larger share of this subpopulation than in DMSO controls
- testSettings: 10 µM; 24 h; SM minimal medium; subpopulation (auxotrophy): HL
Counter-ions that a name gives are not always drawn.
Kindly return Condition met if reported z-score of subpopulation abundance is no lower than 1; return Condition not met if it is lower.

INPUT: Hi, just wondering whether Cn1c([N+](=O)[O-])cnc1COC(N)=O [Ronidazole] shows z-score of subpopulation abundance of 1 or higher.
OUTPUT: Condition not met

INPUT: Hi, just wondering whether Nc1nc2[nH]cc(CCc3ccc(C(=O)N[C@@H](CCC(=O)O)C(=O)O)cc3)c2c(=O)[nH]1 [Pemetrexed] shows z-score of subpopulation abundance of 1 or higher.
OUTPUT: Condition met

INPUT: Hi, just wondering whether CCOc1ccc2ccccc2c1C(=O)N[C@@H]1C(=O)N2[C@@H]1SC(C)(C)[C@@H]2C(=O)O [Nafcillin Sodium] shows z-score of subpopulation abundance of 1 or higher.
OUTPUT: Condition not met

INPUT: Hi, just wondering whether CCn1cc(C(=O)O)c(=O)c2cc(F)c(N3CCNC(C)C3)c(F)c21 (stereo unspecified) [Lomefloxacin HCl] shows z-score of subpopulation abundance of 1 or higher.
OUTPUT: Condition met

INPUT: Hi, just wondering whether CC[C@H]1OC(=O)[C@H](C)[C@@H](O[C@H]2C[C@@](C)(OC)[C@@H](O)[C@H](C)O2)[C@H](C)[C@@H](O[C@@H]2O[C@H](C)C[C@H](N(C)C)[C@H]2O)[C@](C)(O)C[C@@H](C)C(=O)[C@H](C)[C@H]2OC(=O)O[C@@]21C [Erythromycin Cyclocarbonate] shows z-score of subpopulation abundance of 1 or higher.
OUTPUT: Condition met

Now, please, on to the next compound.
INPUT: Hi, just wondering whether CN1CC(=O)N2[C@H](c3ccc4c(c3)OCO4)c3[nH]c4ccccc4c3C[C@@H]2C1=O [Tadalafil] shows z-score of subpopulation abundance of 1 or higher.
OUTPUT: Condition met

====

- System: Saccharomyces cerevisiae BY4741 SeMeCo community
- protocolDetails: z-score of subpopulation abundance vs DMSO median, subpopulation auxotrophic for HUM; higher = larger share of this subpopulation than in DMSO controls
- testSettings: 10 µM; 24 h; SM minimal medium; subpopulation (auxotrophy): HUM
Where a name gives a salt, the structure may show the parent alone.
Listing of entries alongside the reported z-score of subpopulation abundance.
Reply with the value as a number alone.

Guide cases for z-score of subpopulation abundance, answers given:
INPUT: Any idea what its z-score of subpopulation abundance is? The molecule is Clc1ccc(COC(Cn2ccnc2)c2ccc(Cl)cc2Cl)c(Cl)c1 (stereo not given) [Miconazole Nitrate]
OUTPUT: 6.7

INPUT: Any idea what its z-score of subpopulation abundance is? The molecule is COC(=O)Nc1nc2cc([S+]([O-])c3ccccc3)ccc2[nH]1 (stereo not given) [Oxfendazole]
OUTPUT: 0.73

INPUT: Any idea what its z-score of subpopulation abundance is? The molecule is CC(C)(C)CC(C)(C)c1ccc(OCCOCC[N+](C)(C)Cc2ccccc2)cc1 [Benzethonium Chloride]
OUTPUT: -0.76

INPUT: Any idea what its z-score of subpopulation abundance is? The molecule is Cn1c(=O)c2c(ncn2CC2OCCO2)n(C)c1=O [Doxofylline]
OUTPUT: -0.34

***
INPUT: Any idea what its z-score of subpopulation abundance is? The molecule is CCN(CC)CCOC(=O)c1ccc(N)cc1Cl [Chloroprocaine HCl]
OUTPUT: 0.14

INPUT: Any idea what its z-score of subpopulation abundance is? The molecule is O=C1NCC2(CCN(CCc3ccccc3)CC2)O1 [Fenspiride HCl]
OUTPUT: -0.64

INPUT: Any idea what its z-score of subpopulation abundance is? The molecule is O=c1[nH]c2ccccc2n1CCN1CCN(c2cccc(C(F)(F)F)c2)CC1 [Flibanserin]
OUTPUT: -0.15

INPUT: Any idea what its z-score of subpopulation abundance is? The molecule is NCCNc1ccc(NCCN)c2c1C(=O)c1ccncc1C2=O [Pixantrone Maleate]
OUTPUT: -5.6

INPUT: Any idea what its z-score of subpopulation abundance is? The molecule is O=C1Nc2ccccc2C1=O [Isatin]
OUTPUT: 0.2

INPUT: Any idea what its z-score of subpopulation abundance is? The molecule is CO/N=C1\C[C@]2(C[C@@H]3C[C@@H](C/C=C(\C)C[C@@H](C)/C=C/C=C4\CO[C@@H]5[C@H](O)C(C)=C[C@@H](C(=O)O3)[C@]45O)O2)O[C@H](/C(C)=C/C(C)C)[C@H]1C [Moxidectin]
OUTPUT: 1.33

====

Listing of entries alongside the reported mean cell size.
- System: Saccharomyces cerevisiae BY4741 SeMeCo community
- protocolDetails: mean cell size (pixel area) (pixels); higher = larger cells
- testSettings: 10 µM; 24 h; SM minimal medium
Counter-ions that a name gives are not always drawn.
Reply with the value as a number alone.

INPUT: Any idea what its mean cell size is? The compound is CCCCNc1ccc(C(=O)OCCN(C)C)cc1 [Tetracaine HCl]
OUTPUT: 12.5

***
INPUT: Any idea what its mean cell size is? The compound is CO[C@H]1C[C@@H]2CC[C@@H](C)[C@@](O)(O2)C(=O)C(=O)N2CCCC[C@H]2C(=O)O[C@H]([C@H](C)C[C@@H]2CC[C@@H](OP(C)(C)=O)[C@H](OC)C2)CC(=O)[C@H](C)/C=C(\C)[C@@H](O)[C@@H](OC)C(=O)[C@H](C)C[C@H](C)/C=C/C=C/C=C/1C
OUTPUT: 14.2

INPUT: Any idea what its mean cell size is? The compound is CC(C(=O)O)c1ccc(C(=O)c2cccs2)cc1 (stereo not drawn)
OUTPUT: 12.4
